Tested on: Hepatitis C virus
Test: Antiviral activity against Hepatitis C virus genotype 1b in human HuH7 cells assessed as inhibition of viral replication after 72 hrs by luciferase reporter assay
Type: functional, cell-based, Hepacivirus hominis
Settings: Huh-7, 72 h
The following compounds are listed with their measured log10 EC50 values.
Log10 applied to EC50; unit prior to transform: nM.

Use the examples below as a reference point.
C#Cc1cc([C@@H]2O[C@H](CO)[C@@H](O)[C@@]2(C)O)n2ncnc(N)c12 2.23
C[C@@]1(O)[C@H](O)[C@@H](CO)O[C@H]1c1cc(F)c2c(N)ncnn12 3.49
C[C@@]1(O)[C@H](O)[C@@H](CO)O[C@H]1c1cc(-c2ncco2)c2c(N)ncnn12 3.26
C[C@@]1(O)[C@H](O)[C@@H](CO)O[C@H]1c1cc(Cl)c2c(N)ncnn12 2.41

Now consider a different compound.
Query string: GET /values?readout=log10 EC50&item= C[C@@]1(O)[C@H](O)[C@@H](CO)O[C@H]1c1cc(C#N)c2c(N)ncnn12
Result string: 3.00
